- Experiment notes: Oral bioavailability (rat)
- Format: in vivo
- Study conditions: in vivo, po
Measure: bioavailability (%)
Answers are plain numbers, in %.

Completed entries (count: 2):
INSERT INTO assay_data (compound, measure, measurement) VALUES
  ('CCc1cn([C@@H]2O[C@H](CNC(=O)C(C)Oc3ccc(Cl)cc3Cl)[C@@H](O)[C@@H]2F)c(=O)[nH]c1=O (single isomer, unassigned) [Compound B, diastereoisomer a]', 'bioavailability', 14.4),
  ('CCc1cn([C@H]2C[C@H](O)[C@@H](CNC(=O)C(C)Oc3ccc(Cl)cc3Cl)O2)c(=O)[nH]c1=O (single isomer, unassigned) [Compound A, diastereoisomer a]', 'bioavailability', 2.84);

Requested field: bioavailability. Item: CCc1cn([C@@H]2O[C@H](CNC(=O)[C@H](C)Oc3cc(OC)c(Cl)cc3Cl)[C@@H](O)[C@@H]2F)c(=O)[nH]c1=O [Compound (I)]
26

###

Could you please report measured pIC50 for the items listed next?
- Target entity: HSV-2 thymidine kinase (Human herpesvirus 2, UniProt P89446)
- Sequence (P89446 whole entry): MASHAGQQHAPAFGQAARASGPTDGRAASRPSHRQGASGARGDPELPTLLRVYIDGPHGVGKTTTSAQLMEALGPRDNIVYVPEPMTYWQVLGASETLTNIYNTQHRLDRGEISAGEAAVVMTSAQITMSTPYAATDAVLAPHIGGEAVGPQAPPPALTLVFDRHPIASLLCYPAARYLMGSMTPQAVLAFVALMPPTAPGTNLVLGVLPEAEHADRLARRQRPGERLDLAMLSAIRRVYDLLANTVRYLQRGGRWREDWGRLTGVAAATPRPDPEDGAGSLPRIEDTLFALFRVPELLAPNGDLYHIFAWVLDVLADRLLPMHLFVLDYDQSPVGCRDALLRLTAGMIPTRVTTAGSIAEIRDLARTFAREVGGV
- Experiment notes: inhibition of HSV-2 thymidine kinase
- Format: biochemical
- Study conditions: 37° C., 30 minutes, pH 8, 3H-thymidine; read-out: Activity against HSV-2 TK, IC50
Answers are plain numbers, as −log10 of the molar value.

INSERT INTO measurements (molecule, target_entity, measurement) VALUES
  ('CCc1cn([C@@H]2O[C@H](CNC(=O)C(C)Oc3ccc(Cl)cc3Cl)[C@@H](O)[C@@H]2F)c(=O)[nH]c1=O (mixture of isomers)', 'HSV-2 thymidine kinase (Human herpesvirus 2, UniProt P89446)', 8.40);

Requested field: pIC50. Item: CCc1cn([C@H]2C[C@H](O)[C@@H](CNC(=O)C(C)Oc3ccc(Cl)cc3Cl)O2)c(=O)[nH]c1=O (mixture of isomers)
8.43

Origin of measurements: patent US5698532A
